# Ki per entry for UniProt Q13464

# Compound, Ki
records = [
    ("Cc1c[nH]c2nccc(Oc3cccc(C(N)CC(=O)N4CCN(C)CC4)c3)c12 (centres unmarked)", "5 to 50 nM"),
    ("Cc1c[nH]c2nccc(Oc3cccc(CC(N)C(=O)N4CCN(C)CC4)c3)c12 (centres unmarked)", "5 to 50 nM"),
    ("Cc1c[nH]c2nccc(Oc3cccc(CC(N)C(=O)NCCCN(C)C)c3)c12 (centres unmarked)", "> 50 nM"),
    ("COCCCNC(=O)C(N)Cc1cccc(Oc2ccnc3[nH]cc(C)c23)c1 (centres unmarked)", "5 to 50 nM"),
    ("Cc1c[nH]c2nccc(Oc3cccc(CC(N)C(=O)NCCc4ccncc4)c3)c12 (centres unmarked)", "< 5 nM"),
]

====

Molecular target: UniProt O75116
Sequence (O75116 whole entry): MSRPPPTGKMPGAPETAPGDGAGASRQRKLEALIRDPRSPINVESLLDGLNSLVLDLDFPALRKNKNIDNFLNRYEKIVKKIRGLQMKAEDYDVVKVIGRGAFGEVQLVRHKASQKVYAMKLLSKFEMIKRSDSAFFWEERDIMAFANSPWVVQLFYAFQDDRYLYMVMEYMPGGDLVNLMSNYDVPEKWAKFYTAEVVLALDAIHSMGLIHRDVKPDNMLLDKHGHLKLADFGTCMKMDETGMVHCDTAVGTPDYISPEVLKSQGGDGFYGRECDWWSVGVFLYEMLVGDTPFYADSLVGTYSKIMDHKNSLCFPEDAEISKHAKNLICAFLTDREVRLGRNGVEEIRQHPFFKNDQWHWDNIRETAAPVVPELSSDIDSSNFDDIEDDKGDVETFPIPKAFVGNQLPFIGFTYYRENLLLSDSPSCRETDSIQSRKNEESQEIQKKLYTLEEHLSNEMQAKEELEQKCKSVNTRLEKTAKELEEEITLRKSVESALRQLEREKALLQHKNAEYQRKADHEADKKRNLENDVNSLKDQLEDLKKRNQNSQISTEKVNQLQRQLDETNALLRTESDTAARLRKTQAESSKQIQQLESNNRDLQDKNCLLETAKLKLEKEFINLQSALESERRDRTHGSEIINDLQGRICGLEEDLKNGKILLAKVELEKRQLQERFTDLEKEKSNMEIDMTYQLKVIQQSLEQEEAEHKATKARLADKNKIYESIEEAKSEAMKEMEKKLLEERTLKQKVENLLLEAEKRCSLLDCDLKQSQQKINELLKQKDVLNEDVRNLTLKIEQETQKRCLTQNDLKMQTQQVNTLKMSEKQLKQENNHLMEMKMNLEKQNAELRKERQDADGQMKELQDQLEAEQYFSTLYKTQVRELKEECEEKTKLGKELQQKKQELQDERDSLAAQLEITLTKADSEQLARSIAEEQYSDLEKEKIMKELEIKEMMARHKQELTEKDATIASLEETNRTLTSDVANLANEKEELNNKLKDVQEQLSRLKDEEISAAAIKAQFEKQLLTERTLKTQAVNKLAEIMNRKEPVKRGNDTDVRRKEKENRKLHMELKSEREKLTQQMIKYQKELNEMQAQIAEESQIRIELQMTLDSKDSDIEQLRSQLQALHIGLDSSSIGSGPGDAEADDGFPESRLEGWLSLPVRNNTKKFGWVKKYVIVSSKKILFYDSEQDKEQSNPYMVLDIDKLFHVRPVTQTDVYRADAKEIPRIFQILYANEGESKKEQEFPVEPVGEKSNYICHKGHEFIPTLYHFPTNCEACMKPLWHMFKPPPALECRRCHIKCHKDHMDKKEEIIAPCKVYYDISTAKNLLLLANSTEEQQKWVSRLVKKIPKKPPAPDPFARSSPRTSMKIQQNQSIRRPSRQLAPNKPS
pKi: −log10 of the molar value.
Reported endpoint: pKi

# Molecule, Test system, Reading
rows = [
    ("COCCCNC(=O)CC(CN)c1cccc(Oc2ccnc3[nH]cc(C)c23)c1 (stereo not shown) [Example 14]", "UniProt O75116", "7.30 to 8.30"),
    ("Cc1c[nH]c2nccc(Oc3cccc(CC(N)C(=O)NCCc4ccncc4)c3)c12 (stereo not shown) [Example 4]", "UniProt O75116", "> 8.30"),
    ("COCCCNC(=O)C(N)Cc1cccc(Oc2ccnc3[nH]cc(C)c23)c1 (stereo not shown) [Example 2]", "UniProt O75116", "7.30 to 8.30"),
    ("Cc1c[nH]c2nccc(Oc3cccc(CC(CN)C(=O)NCCCN(C)C)c3)c12 (stereo not shown) [Example 12]", "UniProt O75116", "< 7.30"),
    ("Cc1c[nH]c2nccc(Oc3cccc(C(N)CC(=O)NCCCN(C)C)c3)c12 (stereo not shown) [Example 8]", "UniProt O75116", "< 7.30"),
    ("Cc1c[nH]c2nccc(Oc3cccc(C(CN)CC(=O)NCCc4ccncc4)c3)c12 (stereo not shown) [Example 13]", "UniProt O75116", "7.30 to 8.30"),
    ("Cc1c[nH]c2nccc(Oc3cccc(CC(CN)C(=O)N4CCN(C)CC4)c3)c12 (stereo not shown) [Example 9]", "UniProt O75116", "< 7.30"),
]

====

pKi: −log10 of the molar value.
pKi values recorded for Rho kinase 1 (ROCK1) (Homo sapiens)

# Compound, Test system, pKi
rows = [
    ("Cc1c[nH]c2nccc(Oc3cccc(C(N)CC(=O)NCCCN(C)C)c3)c12 (stereo not shown) [Example 8]", "Rho kinase 1 (ROCK1) (Homo sapiens)", "< 7.30"),
    ("Cc1c[nH]c2nccc(Oc3cccc(CC(CN)C(=O)N4CCN(C)CC4)c3)c12 (stereo not shown) [Example 9]", "Rho kinase 1 (ROCK1) (Homo sapiens)", "< 7.30"),
    ("COCCCNC(=O)C(CN)Cc1cccc(Oc2ccnc3[nH]cc(C)c23)c1 (stereo not shown) [Example 10]", "Rho kinase 1 (ROCK1) (Homo sapiens)", "7.30 to 8.30"),
    ("Cc1c[nH]c2nccc(Oc3cccc(CC(CN)C(=O)NCCc4ccncc4)c3)c12 (stereo not shown) [Example 11]", "Rho kinase 1 (ROCK1) (Homo sapiens)", "7.30 to 8.30"),
]
